Provide the reported inhibition at 10 µM of each item.
Biological target: human B1R receptor (Homo sapiens)
Construct: host or cells: CHO K1 cells (Chinese hamster ovary), stably transfected
Sequence (P46663 1-353): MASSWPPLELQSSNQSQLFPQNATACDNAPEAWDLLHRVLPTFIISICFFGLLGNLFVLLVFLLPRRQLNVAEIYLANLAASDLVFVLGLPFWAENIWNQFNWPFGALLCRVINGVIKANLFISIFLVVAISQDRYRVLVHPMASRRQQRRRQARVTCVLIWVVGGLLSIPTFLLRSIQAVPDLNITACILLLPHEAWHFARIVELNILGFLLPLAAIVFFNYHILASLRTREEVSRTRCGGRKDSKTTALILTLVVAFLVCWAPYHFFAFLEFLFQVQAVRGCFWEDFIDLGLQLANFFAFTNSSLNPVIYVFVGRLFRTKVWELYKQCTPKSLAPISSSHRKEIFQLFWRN
Assay: Functional study on the bradykinin receptor 1 (B1R), FLIPR Ca2+ assay, hB1R cells
Assay type: cell-based
Conditions: CHO-K1, test substance 10 μM, agonist Lys-Des-Arg9-bradykinin 0.5 nM, % inhibition compared with the maximum achievable inhibition, read-out: B1R Antagonism, human [10 μM] % Inhibition
Respond with the bare value in %.

Identify the reported inhibition at 10 µM for the following entry. COc1cc(C)c(S(=O)(=O)N2CCCCC2COCC(=O)NCC2CCCN(Cc3ccccc3)C2)c(C)c1 (stereo not drawn) 99.2

Identify the reported inhibition at 10 µM for the following entry. COc1cc(C)c(S(=O)(=O)N2CCCCC2COCC(=O)NCCn2nccc2C)c(C)c1 (stereo not drawn) 50.2

Identify the reported inhibition at 10 µM for the following entry. COc1cc(C)c(S(=O)(=O)N2CCCC2COCC(=O)N(C)C(CN2CCOCC2)c2ccccc2)c(C)c1 (stereo not drawn) 71.1

Identify the reported inhibition at 10 µM for the following entry. `COc1cc(C)c(S(=O)(=O)N2Cc3ccccc3C[C@H]2COCC(=O)N2CCC(CCN3CCCC3)CC2)c(C)c1` 100

Identify the reported inhibition at 10 µM for the following entry. COc1cc(C)c(S(=O)(=O)N2Cc3ccccc3CC2COCC(=O)N2CCN(CCCN(C)C)CC2)c(C)c1C (stereo not drawn) 102

Identify the reported inhibition at 10 µM for the following entry. O=C(COCC1CCCN1S(=O)(=O)c1ccc(Cl)c(Cl)c1)N1CCC(CCN2CCCCC2)CC1 (stereo not drawn) 79.4

Identify the reported inhibition at 10 µM for the following entry. CCN(CC)CCN(CCN(CC)CC)C(=O)COCC1Cc2ccccc2CN1S(=O)(=O)c1ccc(Cl)c(Cl)c1 (stereo not drawn) 69.9

Identify the reported inhibition at 10 µM for the following entry. O=C(COCC1CCCCN1S(=O)(=O)c1ccc(Cl)c(Cl)c1)N1CCC(CCN2CCCCC2)CC1 (stereo not drawn) 94.9

Identify the reported inhibition at 10 µM for the following entry. Cc1cc(Br)cc(C)c1S(=O)(=O)N1CCCCC1COCC(=O)N1CCN(C2CCN(C)CC2)CC1 (stereo not drawn) 100

Identify the reported inhibition at 10 µM for the following entry. COc1cc(C)c(S(=O)(=O)N2CCCCC2COCC(=O)NCc2ccc(N3CCCCC3)cc2)c(C)c1 (stereo not drawn) 97

Identify the reported inhibition at 10 µM for the following entry. O=C(COCC1CCCN1S(=O)(=O)c1c(Cl)cccc1Cl)N1CCN(Cc2ccc(Cl)cc2)CC1 (stereo not drawn) 98.6

Identify the reported inhibition at 10 µM for the following entry. COc1cc(C)c(S(=O)(=O)N2CCCCC2COCC(=O)N2CCC(c3nc(-c4ccncc4)no3)CC2)c(C)c1 (stereo not drawn) 105

Identify the reported inhibition at 10 µM for the following entry. O=C(COCC1CCCCN1S(=O)(=O)c1c(Cl)cc(Cl)cc1Cl)NCCN1CCCC1 (stereo not drawn) 57.1

Identify the reported inhibition at 10 µM for the following entry. Cc1ccc(C)n1CCN1CCN(C(=O)COCC2CCCN2S(=O)(=O)c2c(Cl)cc(Cl)cc2Cl)CC1 (stereo not drawn) 105

Identify the reported inhibition at 10 µM for the following entry. CN(C)CCCN1CCN(C(=O)COCC2CCCCN2S(=O)(=O)c2c(Cl)cccc2Cl)CC1 (stereo not drawn) 105

Identify the reported inhibition at 10 µM for the following entry. COc1cc(C)c(S(=O)(=O)N2CCCCC2CCOCC(=O)N2CCN(C3CCN(C)CC3)CC2)c(C)c1 (stereo not drawn) 99.6

Identify the reported inhibition at 10 µM for the following entry. `COc1ccc(S(=O)(=O)N2Cc3ccccc3C[C@H]2COCC(=O)N2CCN(C3CCN(C)CC3)CC2)cc1` 89.9

Identify the reported inhibition at 10 µM for the following entry. O=C(COCC1CCCN1S(=O)(=O)c1c(Cl)cccc1Cl)N1CCCCC1Cc1ccncc1 (stereo not drawn) 40.5

Identify the reported inhibition at 10 µM for the following entry. O=C(COCC1CCCCN1S(=O)(=O)c1c(Cl)cc(Cl)cc1Cl)N(C1CC1)C1CCN(Cc2ccccc2)CC1 (stereo not drawn) 105

Identify the reported inhibition at 10 µM for the following entry. Cc1cc(C)nc(CC2CCCCN2C(=O)COCC2Cc3ccccc3CN2S(=O)(=O)c2c(C)cc(C)cc2C)c1 (stereo not drawn) 26.2

Identify the reported inhibition at 10 µM for the following entry. COc1cc(C)c(S(=O)(=O)N2CCCC2COCC(=O)NC(CN2CCOCC2)c2ccccc2)c(C)c1 (stereo not drawn) 41.8

Identify the reported inhibition at 10 µM for the following entry. COc1cc(C)c(S(=O)(=O)N2CCCCC2COCC(=O)NC(CN2CCN(C)CC2)c2ccccc2)c(C)c1 (stereo not drawn) 100

Identify the reported inhibition at 10 µM for the following entry. CN1CCC(N2CCN(C(=O)COCC3CCCCN3S(=O)(=O)c3cc(C(F)(F)F)ccc3C(F)(F)F)CC2)CC1 (stereo not drawn) 81.6

Identify the reported inhibition at 10 µM for the following entry. CN1CCC(N2CCN(C(=O)COCC3CCCCN3S(=O)(=O)c3c(Cl)cc(Cl)cc3Cl)CC2)CC1 (stereo not drawn) 104

Identify the reported inhibition at 10 µM for the following entry. COc1ccc(C2CCCCN2C(=O)COCC2CCCCN2S(=O)(=O)c2c(C)cc(C)cc2C)cn1 (stereo not drawn) 26.9

Identify the reported inhibition at 10 µM for the following entry. COc1ccc(N2CCN(C(=O)COCC3CCCN3S(=O)(=O)c3c(Cl)cc(Cl)cc3Cl)CC2)cc1 (stereo not drawn) 104

Identify the reported inhibition at 10 µM for the following entry. CN(C)CCCN1CCN(C(=O)COCC2CCCCN2S(=O)(=O)c2ccc(Cl)c(Cl)c2)CC1 (stereo not drawn) 43.7

Identify the reported inhibition at 10 µM for the following entry. O=C(COCC1CCCCN1S(=O)(=O)c1ccc(Cl)c(Cl)c1)N1CCOC(CN2CCCCC2)C1 (stereo not drawn) 102

Identify the reported inhibition at 10 µM for the following entry. COc1cc(C)c(S(=O)(=O)N2CCCCC2COCC(=O)Nc2cc(-c3ccccc3)n[nH]2)c(C)c1 (stereo not drawn) 39.8

Identify the reported inhibition at 10 µM for the following entry. COc1cc(C)c(S(=O)(=O)N2CCCC2COCC(=O)N2CCCN(C)CC2)c(C)c1 (stereo not drawn) 101
